Molecular target: T1, Peptide 4: Biotin-AGGGGSGGGGSGGGGSAAA-Tyr-acid (N-terminal biotin; C-terminal acid)
T1 construct: Control peptide without PC
T1 peptide: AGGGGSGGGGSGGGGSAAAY
Test: scFv ELISA
Protocol: For ELISA analysis of scFv binding, 96-well polystyrene plates were coated with Peptide 1, 4, 5, 8 or 100 μL BSA (10 μg/mL) in PBS at 4° C. overnight. […] All plates were washed three times with PBS-Tween before 40 μL aliquots of PPE were added to assay plates along with 50 μL 10% BSA, and plates were incubated for 1 hour at room temperature. […] The amount of scFv bound to each well was quantitated from absorbance measurement at 450 nm (OD450).
Known OD450 of a selection of binders
property.label: OD450 (OD450)

binder="PcOxP_DB04_C10 (scFv, V domains shown, scFv in periplasmic extract) VH: EVQLLESGGGLVQPGGSLRLSCAASGFTFSDGYMEWVRQAPGKGLEWVAAIRNKANDYTTEYADSVKGRFTISRDNSKNTLYLQMNSLRAEDTAVYYCARDYYGSHYWYFDVWGQGTLVTVSS VL: DIVMTQSPDSLAVSLGERATINCTASESLYSSKHKVHYLAWYQQKPGQPPKLLIYGASNRYIGVPDRFSGSGSGTDFTLTISSLQAEDVAVYYCAQFYSYPLTFGGGTKVEIK" numeric_readout=0.06
binder="PcOxP_DB02_E12 (scFv, V domains shown, scFv in periplasmic extract) VH: EVQLLESGGGLVQPGGSLRLSCAASGFGFSDFYMEWVRQAPGKGLEWVAASRNKANDYTTEYADSVKGRFTISRDNSKNTLYLQMNSLRAEDTAVYYCARDYYGSSYWYFDVWGQGTLVTVSS VL: DIVMTQSPDSLAVSLGERATINCTASESLYSSKHKVHYLAWYQQKPGQPPKLLIYGASNRYIGVPDRFSGSGSGTDFTLTISSLQAEDVAVYYCAEFYSYPLTFGGGTKVEIK" numeric_readout=0.05
binder="PcOxP_DB03_A12 (scFv, V domains shown, scFv in periplasmic extract) VH: EVQLLESGGGLVQPGGSLRLSCAASGFTFSDGYMEWVRQAPGKGLEWVAASRNKANDYTTAYADSVKGRFTISRDNSKNTLYLQMNSLRAEDTAVYYCARDYYGSSYWYFDVWGQGTLVTVSS VL: DIVMTQSPDSLAVSLGERATINCTASESLYSSKHKVHYLAWYQQKPGQPPKLLIYGASNRYIGVPDRFSGSGSGTDFTLTISSLQAEDVAVYYCGQFYSYPLTFGGGTKVEIK" numeric_readout=0.06

This collection of values is drawn from patent US20250320312A1.
